System: Mus musculus
protocol text: Antiinflammatory activity in mouse assessed as xylene-induced ear swollen extent at 100 mg/kg, ig administered 90 mins prior to xylene challenge measured after 30 mins (reference value: 132.8 +/-16.3%)
Format: functional
reported conditions: route intragastric
measured endpoint: Ear swelling extent
Answer by giving the amount and then stating its unit.

| compound | system tested | measured endpoint | recorded measurement |
| --- | --- | --- | --- |
| CC1(C)O[C@H]2CC(=O)OC[C@]23[C@H]2CC[C@]4(C)C(=CC(=O)O[C@H]4c4ccoc4)[C@]2(C)/C(=N\OCCN2CCCCC2)C[C@@H]13.Cl | Mus musculus | Ear swelling extent | 99.1% |

Problem: Output Ear swelling extent of `CC1(C)O[C@H]2CC(=O)OC[C@]23[C@H]2CC[C@@]4(C)[C@H](c5ccoc5)OC(=O)[C@H]5O[C@]54[C@]2(C)/C(=N\OCCN2CCCCC2)C[C@@H]13.Cl`
Solution: 60.1%

Problem: Output Ear swelling extent of `CCN(CC)CCO/N=C1/C[C@H]2C(C)(C)O[C@H]3CC(=O)OC[C@]32[C@H]2CC[C@@]3(C)[C@H](c4ccoc4)OC(=O)[C@H]4O[C@]43[C@]12C.Cl`
Solution: 32.6%

Problem: Output Ear swelling extent of CC1(C)O[C@H]2CC(=O)OC[C@]23[C@H]2CC[C@@]4(C)[C@H](c5ccoc5)OC(=O)[C@H]5O[C@]54[C@]2(C)C(=O)C[C@@H]13 [LIMONIN]
Solution: 89.3%

Problem: Output Ear swelling extent of `CN(C)CCO/N=C1/C[C@H]2C(C)(C)O[C@H]3CC(=O)OC[C@]32[C@H]2CC[C@]3(C)C(=CC(=O)O[C@H]3c3ccoc3)[C@]12C.Cl`
Solution: 100.2%

Problem: Output Ear swelling extent of `CC1(C)O[C@H]2CC(=O)OC[C@]23[C@H]2CC[C@]4(C)C(=CC(=O)O[C@H]4c4ccoc4)[C@]2(C)/C(=N\OCCN2CCOCC2)C[C@@H]13.Cl`
Solution: 96.1%

Problem: Output Ear swelling extent of `CC1(C)O[C@H]2CC(=O)OC[C@]23[C@H]2CC[C@@]4(C)[C@H](c5ccoc5)OC(=O)[C@H]5O[C@]54[C@]2(C)/C(=N\OCCN2CCOCC2)C[C@@H]13.Cl`
Solution: 62.4%

Problem: Output Ear swelling extent of `CN(C)CCCO/N=C1/C[C@H]2C(C)(C)O[C@H]3CC(=O)OC[C@]32[C@H]2CC[C@]3(C)C(=CC(=O)O[C@H]3c3ccoc3)[C@]12C.Cl`
Solution: 97.8%

Problem: Output Ear swelling extent of `CN(C)CCO/N=C1/C[C@H]2C(C)(C)O[C@H]3CC(=O)OC[C@]32[C@H]2CC[C@@]3(C)[C@H](c4ccoc4)OC(=O)[C@H]4O[C@]43[C@]12C.Cl`
Solution: 72.4%

Problem: Output Ear swelling extent of CC1(C)O[C@H]2CC(=O)OC[C@@]23[C@H]1CC(=O)[C@@]1(C)C2=CC(=O)O[C@H](c4ccoc4)[C@]2(C)CC[C@@H]13 [DESOXYLIMONIN]
Solution: 111.7%

Problem: Output Ear swelling extent of `CCN(CC)CCO/N=C1/C[C@H]2C(C)(C)O[C@H]3CC(=O)OC[C@]32[C@H]2CC[C@]3(C)C(=CC(=O)O[C@H]3c3ccoc3)[C@]12C.Cl`
Solution: 108.2%

Problem: Output Ear swelling extent of `CN(C)CCCO/N=C1/C[C@H]2C(C)(C)O[C@H]3CC(=O)OC[C@]32[C@H]2CC[C@@]3(C)[C@H](c4ccoc4)OC(=O)[C@H]4O[C@]43[C@]12C.Cl`
Solution: 71.6%
